- Tested on: HCC-2998 colon
- Experiment: NCI-60 one-dose screen, 48 h (100 = growth as untreated, 0 = no growth, -100 = all killed)
- Experimental parameters: 10 µM
The panel holds about 83,000 compounds, 20% with a hit somewhere; the sample as a whole holds those more often.
Please respond with reported growth for every item in the list.
Give just the number in %; leave the unit off.

### Prompt Tell me measured growth for COc1c(-c2c3sc(=O)[nH]c3nc3c2c(=O)[nH]n3C(C)C)cc2c(c1OC)OCO2 please.
### Response 107

### Prompt Tell me measured growth for CCCCCN(CCCCC)C(C)C(O)c1ccc2cc(Cl)c3ccccc3c2c1 (configuration not stated) please.
### Response 97.6

### Prompt Tell me measured growth for CS(=O)(=O)Nc1ccc(Nc2c3ccccc3nc3cc(Cl)ccc23)cc1 please.
### Response 42.6

### Prompt Tell me measured growth for Cc1cc(Nc2cccc(F)c2)nc(NCc2ccccc2)n1 please.
### Response 26.9

### Prompt Tell me measured growth for COc1ccc2oc(=O)cc(C3c4ccc([nH]4)C(c4cc(=O)oc5ccc(OC)cc45)c4ccc([nH]4)C(c4cc(=O)oc5ccc(OC)cc45)c4ccc([nH]4)C(c4cc(=O)oc5ccc(OC)cc45)c4ccc3[nH]4)c2c1 (configuration not stated) please.
### Response 30.5

### Prompt Tell me measured growth for O=C(NCc1cn(Cc2cccc(Oc3ccccc3)c2)nn1)c1cccnc1Nc1ccccc1 please.
### Response 57.1

### Prompt Tell me measured growth for CCOC(=O)/C(C#N)=C(/C)C1CC1 please.
### Response 112

### Prompt Tell me measured growth for CCCCC(=O)N(c1ccc(Nc2c3ccccc3nc3cc([N+](=O)[O-])ccc23)cc1)S(C)(=O)=O please.
### Response 86.1

### Prompt Tell me measured growth for Cc1cccc2c1O/C(=C\c1ncc([N+](=O)[O-])n1C)C2=O please.
### Response -73.1

### Prompt Tell me measured growth for COc1ccc(-c2nc(NC(=O)CS(=O)(=O)c3ccc(F)cc3)sc2C)cc1 please.
### Response 47.4

### Prompt Tell me measured growth for CC(=O)c1c(O)cc2c3c1OC(C)(C)C1CCC(C)(CC31)O2 (configuration not stated) please.
### Response 115

### Prompt Tell me measured growth for Cc1nc2scc(-c3ccc(Cl)cc3)n2c(=O)c1CCN1CCOCC1 please.
### Response 106

---

- System: MALME-3M melanoma
- Experiment: NCI-60 one-dose screen, 48 h (100 = growth as untreated, 0 = no growth, -100 = all killed)
- Experimental parameters: 10 µM
Compounds without any hit were thinned out: in the full panel of roughly 83,000, 20% have a hit.
Entries whose growth is below 90% take criterion met; entries at or above 90% take criterion not met.

### Prompt Bench note: check whether CCN(Cc1ccccc1)C1CCN(Cc2cc(Br)ccc2O)CC1 shows growth below 90%
### Response criterion met

### Prompt Bench note: check whether CCOC(=S)Sc1ccc([N+](=O)[O-])cc1[N+](=O)[O-] shows growth below 90%
### Response criterion met

### Prompt Bench note: check whether CC(C)C[C@H](NC(=O)Cn1ccc(Nc2ccccc2)cc1=O)B(O)O shows growth below 90%
### Response criterion met

### Prompt Bench note: check whether COc1ccc(-c2cc(/C=C/C(=O)c3ccc(N)cc3)[nH]n2)cc1OC shows growth below 90%
### Response criterion not met

### Prompt Bench note: check whether CC(=O)/C(=C\c1ccc(Cl)cc1)c1ccccc1 shows growth below 90%
### Response criterion met

### Prompt Bench note: check whether O=C1CC[C@@H](C(=O)N[C@H]2CSSC[C@@H](C(=O)N/C=C/c3ccc(O)cc3)NC(=O)[C@H](Cc3ccccc3)NC(=O)[C@@H]3CCCN3C(=O)[C@@H]3CCCN3C2=O)N1 shows growth below 90%
### Response criterion not met

### Prompt Bench note: check whether COc1cc2ccnc(C=O)c2cc1OC shows growth below 90%
### Response criterion met

### Prompt Bench note: check whether Cc1nc2scc(-c3ccc(Cl)cc3)n2c(=O)c1CCN1CCOCC1 shows growth below 90%
### Response criterion not met

### Prompt Bench note: check whether NC1CCC(Nc2nc(NCc3ccc(-c4cccs4)nc3)c3ncn(C4CCCC4)c3n2)CC1 (stereo not given) shows growth below 90%
### Response criterion met

### Prompt Bench note: check whether Cc1nc(Nc2nc3ccccc3o2)nc(-c2cccc([N+](=O)[O-])c2)c1C(=O)Nc1ccc(F)c(Cl)c1 shows growth below 90%
### Response criterion met

### Prompt Bench note: check whether CCOC(=O)Nc1ccc2c(c1)C(=O)N(CCOC)c1ccccc1O2 shows growth below 90%
### Response criterion met

### Prompt Bench note: check whether COc1ccccc1S(=O)(=O)Nc1ccc2c(c1)CN(C)C(=O)N2 shows growth below 90%
### Response criterion met

### Prompt Bench note: check whether CC(C)C[C@H](NC(=O)Cn1ccc2ccccc2c1=O)B(O)O shows growth below 90%
### Response criterion met

---

Please respond with reported growth for every item in the list.
- Tested on: OVCAR-5 ovarian
- Experiment: NCI-60 one-dose screen, 48 h (100 = growth as untreated, 0 = no growth, -100 = all killed)
- Experimental parameters: 10 µM
- Experimental: Growth inhibition of the OVCAR-5 human tumor cell line is measured as a screen for anti-cancer activity. Cells are grown in 96 well plates and exposed to the test compound for 48 hours. Compounds are tested at a single concentration, which is 10^-5 M for most compounds. The reported endpoint is percent growth (GI% or GIPRCNT), where numbers from 0 - 100% represent growth inhibition, and numbers from -100% - 0 represent cell death. For example, a value of 40 represents 60% growth inhibition. […]
The panel holds about 83,000 compounds, 20% with a hit somewhere; the sample as a whole holds those more often.
Give just the number in %; leave the unit off.

### Prompt Tell me measured growth for CCN(CCCNC(=O)Cc1cc(=O)oc2cc(N(C)C)ccc12)CCNc1ccnc2cc(Cl)ccc12 please.
### Response 109

### Prompt Tell me measured growth for CCN(CC)CCCOC(=O)Nc1ccccc1Cl please.
### Response 110

### Prompt Tell me measured growth for CCN(CC)CCOC(=O)c1ccc(N=Nc2ccc(O)c(OC)c2)cc1 please.
### Response 95.4

### Prompt Tell me measured growth for O=C1/C(=C/c2ccc(O)cc2)Cc2ccc(Cl)cc21 please.
### Response 111

### Prompt Tell me measured growth for Cc1ccc(NC(=O)/C=N/O)cc1C please.
### Response 96.9

### Prompt Tell me measured growth for Cc1nc2scc(-c3ccc(Cl)cc3)n2c(=O)c1CCN1CCOCC1 please.
### Response 116

### Prompt Tell me measured growth for CCC(CCNc1cc(OC)cc2cccnc12)CN1C(=O)c2ccccc2C1=O (centres undefined) please.
### Response 111

### Prompt Tell me measured growth for O=C(/C=C/c1nnc2n(Cc3ccccc3)c(=O)c3c4c(sc3n12)CCCC4)c1ccccc1 please.
### Response 115

### Prompt Tell me measured growth for CCCc1c(C)nc2scc(-c3ccc(Cl)cc3)n2c1=O please.
### Response 104

---

- Tested on: OVCAR-8 ovarian
- Experiment: NCI-60 one-dose screen, 48 h (100 = growth as untreated, 0 = no growth, -100 = all killed)
- Experimental parameters: 10 µM
The panel holds about 83,000 compounds, 20% with a hit somewhere; the sample as a whole holds those more often.
Please respond with reported growth for every item in the list.
Give just the number in %; leave the unit off.

### Prompt Tell me measured growth for N#C/C(=C\N1C(=O)/C(=C/c2cccc([N+](=O)[O-])c2)SC1=S)c1nc2ccccc2s1 please.
### Response 94.7

### Prompt Tell me measured growth for COc1ccc(-c2ccc(-c3ccc(C(=N)N)c(F)c3)s2)cc1 please.
### Response -48.7

### Prompt Tell me measured growth for CCCCC(CC#N)(CCC)CCC please.
### Response 104

### Prompt Tell me measured growth for Cc1ccc2oc(=O)cc(/C(=C3/C=CC=N3)c3ccc[nH]3)c2c1 please.
### Response -20.2

### Prompt Tell me measured growth for COc1ccccc1S(=O)(=O)Nc1ccc2c(c1)CN(C)C(=O)N2 please.
### Response 56.2

### Prompt Tell me measured growth for Fc1ccc2[nH]c3c(NCCCN4CCOCC4)ncnc3c2c1 please.
### Response 68.3

### Prompt Tell me measured growth for CCOC(=O)/C(C#N)=C(/C)C1CC1 please.
### Response 107

### Prompt Tell me measured growth for O=c1cc(CSc2nnc(-c3ccccc3)n2-c2ccc(F)cc2)c2ccc3ccccc3c2o1 please.
### Response 93

### Prompt Tell me measured growth for CCOC(=O)[C@@H](Cc1ccccc1)NC(=O)c1[nH]c2ccc(Cl)cc2c(=O)c1C please.
### Response 97.8

### Prompt Tell me measured growth for C(=C\c1nc2ccccc2s1)/c1ccc(N2CCOCC2)s1 please.
### Response 97.6

### Prompt Tell me measured growth for CCCCn1c(=O)[nH]c2c(c1=O)C(c1ccc(Cl)cc1)c1c([nH]c(=O)n(CCCC)c1=O)N2 please.
### Response 99.5

### Prompt Tell me measured growth for O=C(c1ccccc1)C(Nc1ccccc1)c1ccccc1 (stereo unspecified) please.
### Response 87

### Prompt Tell me measured growth for COc1ccc(C2C=C(c3ccc(Cl)cc3)N=C3SC=CN32)c(Br)c1 (stereo unspecified) please.
### Response 67.3

### Prompt Tell me measured growth for C=CCn1c(C)nc2cc(Nc3nc(Nc4ccc5nc(C)n(CC=C)c5c4)c4ccccc4n3)ccc21 please.
### Response -40.9

### Prompt Tell me measured growth for CCN(CC)CCOC(=O)c1ccc(NC(=O)Nc2cccc(Cl)c2)cc1 please.
### Response 97.6

### Prompt Tell me measured growth for CN(C1c2ccccc2Oc2ccccc21)S(=O)(=O)c1cc(Cl)ccc1Cl please.
### Response 65.8
